- Test system: Vero 76
- Protocol Notes: Cytotoxicity against African green monkey Vero 76 cells assessed as reduction in cell viability incubated for 48 hrs by MTT assay
- Assay type: toxicity, cell-based
- Reported Conditions: chlorocebus sabaeus, vero 76, 48 h
Metric: CC50 (nM)

>>> recorded_value("Cc1nc2c(=O)n(C)c(=O)nc-2n(C)n1")
1700

----------
- Protocol Notes: Selectivity index, ratio of CC50 for human Huh-7 cells to EC50 for Yellow fever virus 17D assessed as reduction in cytopathic effect by neutral red staining based analysis
- Assay type: toxicity
- Reported Conditions: read-out: Ratio CC50/EC50
Metric: selectivity ratio

>>> recorded_value("Cc1nc2c(=O)n(C)c(=O)nc-2n(C)n1")
2.9
